Ref: PubChem BioAssay (NCI)

# Test system: MOLT-4 leukemia
# TEST_SUMMARY: NCI-60 one-dose screen, 48 h (100 = growth as untreated, 0 = no growth, -100 = all killed)
# RUN_CONDITIONS: 10 µM unless noted
About 83,000 compounds went through this panel and 20% of them were active in at least one assay; those are over-represented in the sample as a whole. Activity calls are given as the source filed them. How the source made its calls: active means growth percent below 10; inactive means the rest.

{"COMPOUND": "CCCCCN(CCCCC)CC(O)c1c(Cl)ccc2ccccc12 (centres undefined)", "TGT": "MOLT-4 leukemia", "growth": "54% (inactive)"}
{"COMPOUND": "CC(C)n1cc(C2=C(c3cccc4ccccc34)C(=O)NC2=O)c2cc(Br)ccc21", "TGT": "MOLT-4 leukemia", "growth": "49% (inactive)"}
{"COMPOUND": "C=C(C)[C@@H]1CCC[C@]2(C(=O)OC)CC[C@]3(C)[C@@H](CC[C@@H]4[C@@]5(C)CCCNC(C)(C)[C@@H]5CC[C@]43C)[C@@H]12", "TGT": "MOLT-4 leukemia", "growth": "76.9% (inactive)"}
{"COMPOUND": "Cc1ccc(S(=O)(=O)N(CCC(=O)O)c2ccccc2)cc1", "TGT": "MOLT-4 leukemia", "growth": "106% (inactive)"}

###

This section presents molecules with their documented growth values.
# Test system: EKVX NSCLC
# TEST_SUMMARY: NCI-60 one-dose screen, 48 h (100 = growth as untreated, 0 = no growth, -100 = all killed)
# RUN_CONDITIONS: 10 µM unless noted
About 83,000 compounds went through this panel and 20% of them were active in at least one assay; those are over-represented in the sample as a whole.

{"MOLECULE": "COc1ccc(-c2cn(Cc3ccc4c(Br)cc(Br)c(O)c4n3)nn2)cc1", "TGT": "EKVX NSCLC", "UNIT_OF_MEASUREMENT": "%", "growth": 84.2}
{"MOLECULE": "Nc1nc(Nc2ccc([N+](=O)[O-])cc2O)nc(C(Cl)(Cl)Cl)n1", "TGT": "EKVX NSCLC", "UNIT_OF_MEASUREMENT": "%", "growth": 106}
{"MOLECULE": "C=CC(=O)NCc1cccc(Nc2ncc(Br)c(NCCCNC(=O)C3CCC3)n2)c1", "TGT": "EKVX NSCLC", "UNIT_OF_MEASUREMENT": "%", "growth": -27.1}
{"MOLECULE": "O=C(Nc1ncc(Cc2ccccc2)s1)c1ccc2c(c1)OCCO2", "TGT": "EKVX NSCLC", "UNIT_OF_MEASUREMENT": "%", "growth": 32.6}
{"MOLECULE": "CCNc1nc(-c2ccc(Cl)c(OC)c2)c(-c2ccnc(NCCNS(=O)(=O)c3ccc(Cl)cc3)n2)s1", "TGT": "EKVX NSCLC", "UNIT_OF_MEASUREMENT": "%", "growth": 34.9}
{"MOLECULE": "COc1cccc(CNc2nnc(C)c(C)n2)c1O", "TGT": "EKVX NSCLC", "UNIT_OF_MEASUREMENT": "%", "growth": 104}
{"MOLECULE": "O=C(/C=C/c1ccco1)c1ccc(Nc2ccnc3cc(Cl)ccc23)cc1", "TGT": "EKVX NSCLC", "UNIT_OF_MEASUREMENT": "%", "growth": 85.2}
{"MOLECULE": "Nc1ncnc2c1N=C(c1ccc([N+](=O)[O-])cc1)CC(c1ccc3c(c1)OCO3)N2 (configuration not stated)", "TGT": "EKVX NSCLC", "UNIT_OF_MEASUREMENT": "%", "growth": 86}
{"MOLECULE": "Cc1ccccc1NC(=O)c1sc2nc3c(cc2c1N)CCCC3", "TGT": "EKVX NSCLC", "UNIT_OF_MEASUREMENT": "%", "growth": 45.8}
{"MOLECULE": "O=C1N/C(=N/N=C(c2ccccc2)c2ccccc2)S/C1=C\\c1ccc(Br)cc1", "TGT": "EKVX NSCLC", "UNIT_OF_MEASUREMENT": "%", "growth": 101}
{"MOLECULE": "COc1cc(C2CC(c3cccc(Nc4ccncc4)c3)=Nc3c(N)ncnc3N2)cc(OC)c1OC (configuration not stated)", "TGT": "EKVX NSCLC", "UNIT_OF_MEASUREMENT": "%", "growth": 87.2}
{"MOLECULE": "COc1ccc(-c2nc(SCCC(C)C)nc(N/N=C(/C)c3ccc(N)cc3)c2C#N)cc1", "TGT": "EKVX NSCLC", "UNIT_OF_MEASUREMENT": "%", "growth": 93.4}

###

# Tested on: SN12C renal
# TEST_SUMMARY: NCI-60 one-dose screen, 48 h (100 = growth as untreated, 0 = no growth, -100 = all killed)
# RUN_CONDITIONS: 10 µM unless noted
The panel holds about 83,000 compounds, 20% with a hit somewhere; the sample as a whole holds those more often.
Field: class. Source value: growth. Ranges: range 1 (below 40%), range 2 (40% to below 90%), range 3 (90% or more)

{"MOLECULE": "CCc1ccc(Cc2cnc(NC(=O)c3cc(C)oc3C)s2)cc1", "QUALITATIVE_LABEL": "range 2"}
{"MOLECULE": "Cn1cc(-c2nc(-c3c[nH]c4ccncc34)cs2)c2cc(F)ccc21", "QUALITATIVE_LABEL": "range 1"}
{"MOLECULE": "CN(C)C(=S)NN=C(c1ccccn1)c1ccccn1", "QUALITATIVE_LABEL": "range 1"}
{"MOLECULE": "O=C(Nc1ncc(Cc2ccccc2)s1)c1cc(-c2ccccc2)nc2ccccc12", "QUALITATIVE_LABEL": "range 3"}
{"MOLECULE": "NC(=N\\N=C/c1ccc(Cl)cc1Cl)/C(N)=N\\N=C/c1ccc(Cl)cc1Cl", "QUALITATIVE_LABEL": "range 2"}
{"MOLECULE": "COc1cc(C2CC(c3cccc(Nc4ccncc4)c3)=Nc3c(N)ncnc3N2)cc(OC)c1OC (stereo unspecified)", "QUALITATIVE_LABEL": "range 3"}
{"MOLECULE": "O=C(/C=C/C12c3ccccc3C(c3ccccc31)C1C(=O)NC(=O)C12)c1cccs1 (stereo unspecified)", "QUALITATIVE_LABEL": "range 1"}
{"MOLECULE": "COc1cc2c(cc1OC)CC[N+](CCC[N+](C)(C)C)=C2", "QUALITATIVE_LABEL": "range 3"}
{"MOLECULE": "C#CCOc1ccc(C2=NN(C)C3N=C(Cl)c4ncn(C)c4N23)cc1OCC#C (stereo unspecified)", "QUALITATIVE_LABEL": "range 3"}
{"MOLECULE": "CCN1CCN(C(=O)[C@]23CC[C@@H](C)[C@H](C)[C@@H]2C2=CC[C@@H]4[C@@]5(C)C/C(=C/c6ccncc6)C(=O)C(C)(C)[C@@H]5CC[C@@]4(C)[C@]2(C)CC3)CC1", "QUALITATIVE_LABEL": "range 1"}

###

This section presents compounds with their documented growth values.
# Test system: SNB-19 CNS
# TEST_SUMMARY: NCI-60 one-dose screen, 48 h (100 = growth as untreated, 0 = no growth, -100 = all killed)
# RUN_CONDITIONS: 10 µM unless noted
This is part of a sample that, as a whole, favours compounds with a hit. Of some 83,000 tested, about 20% had one in any assay.

{"COMPOUND": "COc1ccc(C(=O)/C=C/Nc2cc(-c3ccccc3)nn2-c2ccccc2)cc1", "growth, %": 92}
{"COMPOUND": "Oc1c(Cl)cc(Cl)c2ccc(CN3CCNCC3)nc12", "growth, %": 41.9}
{"COMPOUND": "COc1ccc(C2=C/C(=C\\c3ccccc3O)C(=O)N2Cc2ccccc2)cc1", "growth, %": 82.3}
{"COMPOUND": "C#CCOC(=O)C(N)CSSCC(N)C(=O)O (stereo unspecified)", "growth, %": 103}
{"COMPOUND": "O=C(CN1C(=O)c2ccccc2S1(=O)=O)Nc1nc(-c2cc3ccccc3oc2=O)cs1", "growth, %": 101}
{"COMPOUND": "O=C1C=CC2(O)OC(c3ccccc3)CC(=O)C2=C1O (stereo unspecified)", "growth, %": 87.8}

###

# Tested on: HOP-92 NSCLC
# TEST_SUMMARY: NCI-60 one-dose screen, 48 h (100 = growth as untreated, 0 = no growth, -100 = all killed)
# RUN_CONDITIONS: 10 µM unless noted
The panel holds about 83,000 compounds, 20% with a hit somewhere; the sample as a whole holds those more often. Activity calls are given as the source filed them. Rule for the calls: active = growth percent below 10; inactive = the rest.
This section presents compounds with their documented growth values.

{"COMPOUND": "COc1ccc(C(=O)/C=C/c2ccc(C)cc2)cc1S(N)(=O)=O", "growth": "41.2% (inactive)"}
{"COMPOUND": "CC1OC(C(=O)N2CCN(CCO)CC2)CC1COC1CCCCC1 (centres undefined)", "growth": "87% [50 µM] (inactive)"}
{"COMPOUND": "CN(C)CCCN(CCC1CCCCC1)CCC1CCCCC1", "growth": "28.8% (inactive)"}
{"COMPOUND": "CNc1nc2ncc(-c3c(C)noc3C)cc2n1Cc1ccccc1", "growth": "7.09% (active)"}
